Source of measurements: patent US9273043B2

ΔTb, body temperature increase values by entry
Assay: In vivo assay of body temperature increase (rectal body temperature)
Design: species or system rat
Settings: rats, oral, 10 mL/kg of 1 mg/mL in 0.5% methylcellulose; greatest ΔTb versus vehicle control at 0.5, 1 or 2 hrs

Provide ΔTb, body temperature increase value for the following compound: C[C@H](O)[C@@H](O)c1cnc(N2CCN(C(=O)Nc3nc4ccc(F)cc4s3)[C@H](C)C2)c(Cl)c1
0.9 °C

Next:
Provide ΔTb, body temperature increase value for the following compound: Cc1cc2nc(NC(=O)N3CCN(c4ncc([C@H](O)CO)cc4C)CC3)sc2cc1C
0.9 °C

====

Experiment: In vivo assay of body temperature increase (rectal body temperature)
Set-up: species or system rat
Settings: rats, oral, 10 mL/kg of 1 mg/mL in 0.5% methylcellulose; greatest ΔTb versus vehicle control at 0.5, 1 or 2 hrs
Readout: ΔTb, body temperature increase (°C)
Express the result in °C but write the number alone.

Illustrative cases are given below, each with its answer.
Provide ΔTb, body temperature increase value for the following compound: C[C@@H]1CN(C(=O)Nc2nc3cc(F)c(F)cc3s2)CCN1c1ncc([C@H](O)CO)cc1F [AE]
0.5

Provide ΔTb, body temperature increase value for the following compound: C[C@H](O)[C@@H](O)c1cnc(N2CCN(C(=O)Nc3nc4ccc(F)cc4s3)[C@@H](C)C2)c(F)c1 [BB]
0.5

Okay, next one:
Provide ΔTb, body temperature increase value for the following compound: O=C(Nc1nc2ccc(F)cc2s1)N1CCN(c2ncc([C@H](O)CO)cc2F)CC1 [DF]
0.5

====

Experiment: In vivo assay of body temperature increase (rectal body temperature)
Set-up: species or system rat
Conditions: rats, oral, 10 mL/kg of 1 mg/mL in 0.5% methylcellulose; greatest ΔTb versus vehicle control at 0.5, 1 or 2 hrs
Readout: ΔTb, body temperature increase (°C)
Express the result in °C but write the number alone.

Provide ΔTb, body temperature increase value for the following molecule: C[C@H](O)[C@@H](O)c1cnc(N2CCN(C(=O)Nc3nc4ccc(F)cc4s3)CC2)c(Cl)c1 [C4(r)]
0.3

Provide ΔTb, body temperature increase value for the following molecule: C[C@@H]1CN(c2ncc([C@H](O)CO)cc2Cl)CCN1C(=O)Nc1nc2ccc(F)cc2s1
1.3

Provide ΔTb, body temperature increase value for the following molecule: C[C@H]1CN(c2ncc([C@@H](O)CO)cc2F)CCN1C(=O)Nc1nc2cc(F)ccc2s1
0.1

Provide ΔTb, body temperature increase value for the following molecule: C[C@H]1CN(c2ncc([C@H](O)CO)cc2F)CCN1C(=O)Nc1nc2ccc(F)cc2s1
0.7

Provide ΔTb, body temperature increase value for the following molecule: C[C@@H]1CN(c2ncc([C@H](O)CO)cc2F)CCN1C(=O)Nc1nc2ccccc2s1
1.1

Provide ΔTb, body temperature increase value for the following molecule: C[C@H]1CN(c2ncc([C@H](O)CO)cc2Cl)CCN1C(=O)Nc1nc2ccc(F)cc2s1
0.8

Okay, next one:
Provide ΔTb, body temperature increase value for the following molecule: C[C@H](O)[C@@H](O)c1cnc(N2CCN(C(=O)Nc3nc4cc(F)c(F)cc4s3)C[C@H]2C)c(F)c1
0.1
